# credit: paper PMC7793522

Molecular target: T1, MAGE-4 peptide on HLA-A*02:01 (human)
T1 peptide: GVYDGREHTV
Test: data from [123]; method not given; soluble, other
value type: pKd
# pKd: negative log10 of molar concentration; output just the value

Prompt: // query pKd value for entry GVY01 (TCR) alpha TRAV10*01 CDR3: VVNHSGGSYIPTF beta TRBV28*01 CDR3: ASSFLMSGDPYEQYF
Completion: 6.72
